Origin of measurements: patent US7118895B2

Tested on: Crude diglycosidase
Experiment: Examination of temperature in the conversion into isoflavone aglycons by diglycosidase using soybean materials
Format: biochemical, Penicillium multicolor IAM7153
Design: concentration or dose not given beside the values
Conditions: 30° C., heat treatment of enzyme no, reaction time 0 h
reportedMetric: Decomposition efficiency of glycitin family in defatted soybean

COc1cc2c(=O)c(-c3ccc(O)cc3)coc2cc1O[C@@H]1O[C@H](COC(C)=O)[C@@H](O)[C@H](O)[C@H]1O : not detected
COc1cc2c(=O)c(-c3ccc(O)cc3)coc2cc1O : 38.7%
COc1cc2c(=O)c(-c3ccc(O)cc3)coc2cc1O[C@@H]1O[C@H](COC(=O)CC(=O)O)[C@@H](O)[C@H](O)[C@H]1O : 61.3%
COc1cc2c(=O)c(-c3ccc(O)cc3)coc2cc1O[C@@H]1O[C@H](CO)[C@@H](O)[C@H](O)[C@H]1O : not detected

---

Let's look at some compounds and their measured Decomposition efficiency of glycitin family in defatted soybean.
Tested on: Crude diglycosidase
Experiment: Examination of pH in the conversion into isoflavone aglycons by diglycosidase using soybean materials
Type: biochemical, Penicillium multicolor IAM7153
Settings: pH7.8; heat treatment of enzyme: yes; reaction time 6 h
Description: A substrate solution of 450 μL was prepared by suspending 50 mg of each soybean material (roasted soy flour (manufactured by Fuji Shokuryo K.K.), soymilk (manufactured by Gitoh Shokuhin K.K.), defatted soybean (manufactured by Fuji Seiyu K.K.), concentrated soybean protein (manufactured by Fuji Seiyu K.K.)), and adjusting the pH to 2 to 11 with hydrochloric acid or sodium hydroxide. […]
Unit % implied. Number only.

COc1cc2c(=O)c(-c3ccc(O)cc3)coc2cc1O [glycitein] : 44.2

Consider now this further compound.
Ask: Can you share its Decomposition efficiency of glycitin family in defatted soybean? I mean this compound: COc1cc2c(=O)c(-c3ccc(O)cc3)coc2cc1O[C@@H]1O[C@H](COC(=O)CC(=O)O)[C@@H](O)[C@H](O)[C@H]1O [malonylglycitin, 6″-O-malonylglycitin]
Result: 55.8

---

Test system: Crude diglycosidase
Experiment: Examination of pH in the conversion into isoflavone aglycons by diglycosidase using soybean materials
Type: biochemical, Penicillium multicolor IAM7153
Conditions: pH3.5; heat treatment of enzyme: no; reaction time 1 h
Each record here notes measured Decomposition efficiency of daidzin family in soymilk.
Report the value in % with no unit label.

Ask: Quick one: Decomposition efficiency of daidzin family in soymilk of O=c1c(-c2ccc(O)cc2)coc2cc(O)ccc12 ?
Result: 64.4

Ask: Given the molecule O=C(O)CC(=O)OC[C@H]1O[C@@H](Oc2ccc3c(=O)c(-c4ccc(O)cc4)coc3c2)[C@H](O)[C@@H](O)[C@@H]1O , what is its reported Decomposition efficiency of daidzin family in soymilk?
Result: 35.6

---

System: Crude diglycosidase
Assay: Examination of pH in the conversion into isoflavone aglycons by diglycosidase using soybean materials
Format: biochemical, Penicillium multicolor IAM7153
Conditions: pH3.4; heat treatment of enzyme: no; reaction time 3 h
reportedMetric: Decomposition efficiency of glycitin family in defatted soybean

COc1cc2c(=O)c(-c3ccc(O)cc3)coc2cc1O [glycitein] : not detected
COc1cc2c(=O)c(-c3ccc(O)cc3)coc2cc1O[C@@H]1O[C@H](COC(C)=O)[C@@H](O)[C@H](O)[C@H]1O [acetylglycitin, 6″-O-acetylglycitin] : not detected
COc1cc2c(=O)c(-c3ccc(O)cc3)coc2cc1O[C@@H]1O[C@H](COC(=O)CC(=O)O)[C@@H](O)[C@H](O)[C@H]1O [malonylglycitin, 6″-O-malonylglycitin] : 100.0%
COc1cc2c(=O)c(-c3ccc(O)cc3)coc2cc1O[C@@H]1O[C@H](CO)[C@@H](O)[C@H](O)[C@H]1O [glycitin] : not detected

---

Tested on: Crude diglycosidase
Test: Examination of temperature in the conversion into isoflavone aglycons by diglycosidase using soybean materials
Format: biochemical, Penicillium multicolor IAM7153
Settings: 55 °C; heat treatment of enzyme: no; 0 h
reportedMetric: Decomposition efficiency of glycitin family in concentrated soybean protein (%)
Form entry: value (%) — number only.

COc1cc2c(=O)c(-c3ccc(O)cc3)coc2cc1O[C@@H]1O[C@H](COC(C)=O)[C@@H](O)[C@H](O)[C@H]1O [acetylglycitin, 6″-O-acetylglycitin] : 36.0

Ask: Record lookup: for Crude diglycosidase, what Decomposition efficiency of glycitin family in concentrated soybean protein belongs to COc1cc2c(=O)c(-c3ccc(O)cc3)coc2cc1O[C@@H]1O[C@H](CO)[C@@H](O)[C@H](O)[C@H]1O [glycitin] ?
Result: 52.3

Ask: Provide the documented Decomposition efficiency of glycitin family in concentrated soybean protein with Crude diglycosidase as the system for COc1cc2c(=O)c(-c3ccc(O)cc3)coc2cc1O [glycitein]
Result: 11.2

Ask: Checklist item: Decomposition efficiency of glycitin family in concentrated soybean protein tested on Crude diglycosidase, entry COc1cc2c(=O)c(-c3ccc(O)cc3)coc2cc1O[C@@H]1O[C@H](COC(=O)CC(=O)O)[C@@H](O)[C@H](O)[C@H]1O [malonylglycitin, 6″-O-malonylglycitin] , value?
Result: 0.4

---

Tested on: Crude diglycosidase
Assay: Examination of temperature in the conversion into isoflavone aglycons by diglycosidase using soybean materials
Format: biochemical, Penicillium multicolor IAM7153
Details: 80° C., heat treatment of enzyme no, reaction time 1 h
reportedMetric: Decomposition efficiency of genistin family in defatted soybean (%)
Just the number please, in %, no unit attached.

O=c1c(-c2ccc(O)cc2)coc2cc(O)cc(O)c12 : 44.9

Ask: Consider the compound O=C(O)CC(=O)OC[C@H]1O[C@@H](Oc2cc(O)c3c(=O)c(-c4ccc(O)cc4)coc3c2)[C@H](O)[C@@H](O)[C@@H]1O and give its measured Decomposition efficiency of genistin family in defatted soybean.
Result: 43.8

Ask: Please look up its Decomposition efficiency of genistin family in defatted soybean: O=c1c(-c2ccc(O)cc2)coc2cc(O[C@@H]3O[C@H](CO)[C@@H](O)[C@H](O)[C@H]3O)cc(O)c12
Result: 9.6

Ask: Look up Decomposition efficiency of genistin family in defatted soybean: CC(=O)OC[C@H]1O[C@@H](Oc2cc(O)c3c(=O)c(-c4ccc(O)cc4)coc3c2)[C@H](O)[C@@H](O)[C@@H]1O
Result: 1.8

---

Tested on: Crude diglycosidase
Assay: Examination of substrate concentration in the conversion into isoflavone aglycons by diglycosidase using soybean materials;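 further: percent of the isoflavone family total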
Format: biochemical, Penicillium multicolor IAM7153
Details: soymilk, substrate concentration 2%, heat treatment of enzyme no, reaction time 6 h
reportedMetric: Decomposition efficiency: ratio of each glycoside/aglycon within its isoflavone family

O=C(O)CC(=O)OC[C@H]1O[C@@H](Oc2ccc3c(=O)c(-c4ccc(O)cc4)coc3c2)[C@H](O)[C@@H](O)[C@@H]1O [malonyldaidzin, 6″-O-malonyldaidzin] : 2.9%
COc1cc2c(=O)c(-c3ccc(O)cc3)coc2cc1O[C@@H]1O[C@H](COC(C)=O)[C@@H](O)[C@H](O)[C@H]1O [acetyl-glycitin] : not detected
O=c1c(-c2ccc(O)cc2)coc2cc(O[C@@H]3O[C@H](CO)[C@@H](O)[C@H](O)[C@H]3O)ccc12 [daidzin] : not detected
COc1cc2c(=O)c(-c3ccc(O)cc3)coc2cc1O[C@@H]1O[C@H](CO)[C@@H](O)[C@H](O)[C@H]1O [glycitin] : not detected
CC(=O)OC[C@H]1O[C@@H](Oc2ccc3c(=O)c(-c4ccc(O)cc4)coc3c2)[C@H](O)[C@@H](O)[C@@H]1O [acetyl-daidzin] : not detected

Now examine the next entry.
Ask: For COc1cc2c(=O)c(-c3ccc(O)cc3)coc2cc1O[C@@H]1O[C@H](COC(=O)CC(=O)O)[C@@H](O)[C@H](O)[C@H]1O [malonylglycitin, 6″-O-malonylglycitin] , what is its reported Decomposition efficiency: ratio of each glycoside/aglycon within its isoflavone family?
Result: not detected

---

The following compounds are listed with their measured Decomposition efficiency of glycitin family in defatted soybean values.
Tested on: Crude diglycosidase
Experiment: Examination of temperature in the conversion into isoflavone aglycons by diglycosidase using soybean materials
Format: biochemical, Penicillium multicolor IAM7153
Parameters: concentration or dose not given beside the values
Settings: 30° C., heat treatment of enzyme no, reaction time 6 h
Provide the reading as a plain figure in %.

COc1cc2c(=O)c(-c3ccc(O)cc3)coc2cc1O : 54.4

Let us examine a further case.
Ask: Lab note: need Decomposition efficiency of glycitin family in defatted soybean for COc1cc2c(=O)c(-c3ccc(O)cc3)coc2cc1O[C@@H]1O[C@H](COC(=O)CC(=O)O)[C@@H](O)[C@H](O)[C@H]1O on Crude diglycosidase, anyone have it?
Result: 45.6

---

Test system: Crude diglycosidase
Assay: Examination of temperature in the conversion into isoflavone aglycons by diglycosidase using soybean materials
Assay type: biochemical, Penicillium multicolor IAM7153
Details: 65 °C; heat treatment of enzyme: no; 0 h
reportedMetric: Decomposition efficiency of glycitin family in soymilk (%)
The reply should contain only the number, in %.

Worked examples follow.
COc1cc2c(=O)c(-c3ccc(O)cc3)coc2cc1O[C@@H]1O[C@H](COC(=O)CC(=O)O)[C@@H](O)[C@H](O)[C@H]1O [malonylglycitin, 6″-O-malonylglycitin] : 48.0
COc1cc2c(=O)c(-c3ccc(O)cc3)coc2cc1O [glycitein] : 8.1

Ask: Item COc1cc2c(=O)c(-c3ccc(O)cc3)coc2cc1O[C@@H]1O[C@H](CO)[C@@H](O)[C@H](O)[C@H]1O [glycitin] with Crude diglycosidase - Decomposition efficiency of glycitin family in soymilk?
Result: 43.9
